experiment: Pharmacokinetic study in rats after intragastric and intravenous administration (UHPLC-MS/MS of plasma); assay type: in vivo, Sprague–Dawley rats; conditions: Sprague-Dawley, rat, po, i.g. low dose 10 mg/kg, plasma, mean ± SD, n = 6
MEASURED PROPERTY: AUC(0-inf) (ng·h/mL)

[[record]]
compound = "COc1c(Br)cc(C[C@H](NC(=O)Cc2ccc(OCCCNC(C)=O)cc2)C(=O)NCCc2cc(Br)c(O)c(Br)c2)cc1Br [itampolin A, Itampolin A]"
recorded_number = 1080


----------
assay: Pharmacokinetic study in rats after intragastric and intravenous administration (UHPLC-MS/MS of plasma); assay type: in vivo, Sprague–Dawley rats; settings: Sprague-Dawley, rat, iv, i.v. 5 mg/kg, plasma, mean ± SD, n = 6
MEASURED PROPERTY: AUC(0-t) (ng·h/mL)

[[record]]
test_smiles = "COc1c(Br)cc(C[C@H](NC(=O)Cc2ccc(OCCCNC(C)=O)cc2)C(=O)NCCc2cc(Br)c(O)c(Br)c2)cc1Br"
measured_property = "AUC(0-t)"
recorded_number = 978

